Data origin: ChEMBL document CHEMBL1157539

System: Plasmodium falciparum
experiment: GSK_TCMDC: Inhibition of Plasmodium falciparum 3D7 in whole red blood cells, using parasite LDH activity as an index of growth. Test compounds present at 2uM
Type: functional
measure: Inhibition (%)
All answers are understood in %, so give the number only.

Here's what some known entries look like.
# molecule, experimental.target, Inhibition (%)
measured = [
    ("O=C(Nc1cccc(-c2cccc(-c3nc4cc(C(F)(F)F)ccc4[nH]3)c2)c1)c1c[nH]cn1", "Plasmodium falciparum", 100),
    ("COC(=O)c1ccc2c(c1)nc(Nc1cccc(F)c1)n2CC(O)c1ccccn1 (stereo not drawn)", "Plasmodium falciparum", 99),
    ("Cc1ccc(NC(=O)c2cnc(N3CCN(c4ccncc4)CC3)c(Cl)c2)cc1.O=C(O)C(F)(F)F", "Plasmodium falciparum", 94),
]

*Q* Specify Inhibition for `O=C(N[C@H]1CCN(Cc2ccc(OC3CCN(Cc4ccccc4)CC3)c(Br)c2)C1)c1ccc(Cl)c(Cl)c1.O=C(O)C(F)(F)F` , system Plasmodium falciparum.
*A* 100

*Q* Specify Inhibition for `CCOC(=O)c1ccc(NC(=O)Nc2cccc(-c3ccc(-c4nc5ccccc5[nH]4)cc3)c2)cc1` , system Plasmodium falciparum.
*A* 100
